substrate: CCCC(=O)Oc1ccc([N+](=O)[O-])cc1; test: purified protein; format: biochemical, Sutcliffiella cohnii; conditions: 50 mM Tris-HCl pH 8.0, 20 °C
# Km per record follows
Hi! Could you send only the number? It should be in µM, unit omitted.

Ask | Which measured Km value corresponds to EstN7 (Sutcliffiella cohnii; N211A) (protein, recombinant, purified from E. coli BL21(DE3); dimer; catalytic triad S157, D254, H284) MKNRIDPELRAMLDMFPPLNLDDVQATRKAMEEAAQLTELPVDEEVVVSNRMVPGPEDNPYVRVRIYEPKEKIEKLPGLLWIHGGGYVLGAPEGDDLLCQRFVKEANCVVVSVDYRLAPEHPYPAPLEDCYAALQWFAKKVDELGVDASRIGVGGQSAGGGLTAALALLARDRKGPELCFQMPLYPMIDDKNNSPSSLEITGNLIWNHDLAEKGWSMYLDGKNGTDDVPVHAAPARATDLTNLPYTYTCVGQLDPFRDETLDYVKRLCQAGVDVEFHLYPGAYHGFETLNPAAAVSQRALAEYVGAVKHVLNREKVVERK ?
Reply | 2000

Ask | Which measured Km value corresponds to EstN7 (Sutcliffiella cohnii; W206A) (protein, recombinant, purified from E. coli BL21(DE3); dimer; catalytic triad S157, D254, H284) MKNRIDPELRAMLDMFPPLNLDDVQATRKAMEEAAQLTELPVDEEVVVSNRMVPGPEDNPYVRVRIYEPKEKIEKLPGLLWIHGGGYVLGAPEGDDLLCQRFVKEANCVVVSVDYRLAPEHPYPAPLEDCYAALQWFAKKVDELGVDASRIGVGGQSAGGGLTAALALLARDRKGPELCFQMPLYPMIDDKNNSPSSLEITGNLIANHDLNEKGWSMYLDGKNGTDDVPVHAAPARATDLTNLPYTYTCVGQLDPFRDETLDYVKRLCQAGVDVEFHLYPGAYHGFETLNPAAAVSQRALAEYVGAVKHVLNREKVVERK ?
Reply | 1200

Please examine the following record next.
Ask | Which measured Km value corresponds to EstN7 (Sutcliffiella cohnii; M187A/N211A) (protein, recombinant, purified from E. coli BL21(DE3); dimer; catalytic triad S157, D254, H284) MKNRIDPELRAMLDMFPPLNLDDVQATRKAMEEAAQLTELPVDEEVVVSNRMVPGPEDNPYVRVRIYEPKEKIEKLPGLLWIHGGGYVLGAPEGDDLLCQRFVKEANCVVVSVDYRLAPEHPYPAPLEDCYAALQWFAKKVDELGVDASRIGVGGQSAGGGLTAALALLARDRKGPELCFQMPLYPAIDDKNNSPSSLEITGNLIWNHDLAEKGWSMYLDGKNGTDDVPVHAAPARATDLTNLPYTYTCVGQLDPFRDETLDYVKRLCQAGVDVEFHLYPGAYHGFETLNPAAAVSQRALAEYVGAVKHVLNREKVVERK ?
Reply | 370
